Target: T1, 4H3364-bH
T1 chain: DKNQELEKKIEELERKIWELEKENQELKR
Assay: two-hybrid library CCNG1;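 also: natural log of median RNA to DNA barcode read ratio; higher means stronger binding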
readout-kind: interaction score
Answer with the value's number alone.

binder="DKNQELEKKIEELERKIWELEKENQELKR [4H3364-bH]" readout_kind="interaction score" assay_result=1.55

q: Dear colleague, I am looking for the recorded interaction score of the following binder: DKIQELEKEIEELKRKNWELEKEIQELKR [4H2162-bH]
a: 0.498

q: Request the reported interaction score associated with DKIQELKKENEELKREIWELEKKNQELKR [4H2760-bH]
a: 0.427

q: Which interaction score value is on record for DKIQELEKENEELKREIWELKKKIQELER [4H2253-bH] ?
a: 0.0509
